Target: Bromodomain adjacent to zinc finger domain protein 2B (Homo sapiens) (UniProt Q9UIF8)
Sequence (Q9UIF8 whole entry, looked up, the tested form may be a part): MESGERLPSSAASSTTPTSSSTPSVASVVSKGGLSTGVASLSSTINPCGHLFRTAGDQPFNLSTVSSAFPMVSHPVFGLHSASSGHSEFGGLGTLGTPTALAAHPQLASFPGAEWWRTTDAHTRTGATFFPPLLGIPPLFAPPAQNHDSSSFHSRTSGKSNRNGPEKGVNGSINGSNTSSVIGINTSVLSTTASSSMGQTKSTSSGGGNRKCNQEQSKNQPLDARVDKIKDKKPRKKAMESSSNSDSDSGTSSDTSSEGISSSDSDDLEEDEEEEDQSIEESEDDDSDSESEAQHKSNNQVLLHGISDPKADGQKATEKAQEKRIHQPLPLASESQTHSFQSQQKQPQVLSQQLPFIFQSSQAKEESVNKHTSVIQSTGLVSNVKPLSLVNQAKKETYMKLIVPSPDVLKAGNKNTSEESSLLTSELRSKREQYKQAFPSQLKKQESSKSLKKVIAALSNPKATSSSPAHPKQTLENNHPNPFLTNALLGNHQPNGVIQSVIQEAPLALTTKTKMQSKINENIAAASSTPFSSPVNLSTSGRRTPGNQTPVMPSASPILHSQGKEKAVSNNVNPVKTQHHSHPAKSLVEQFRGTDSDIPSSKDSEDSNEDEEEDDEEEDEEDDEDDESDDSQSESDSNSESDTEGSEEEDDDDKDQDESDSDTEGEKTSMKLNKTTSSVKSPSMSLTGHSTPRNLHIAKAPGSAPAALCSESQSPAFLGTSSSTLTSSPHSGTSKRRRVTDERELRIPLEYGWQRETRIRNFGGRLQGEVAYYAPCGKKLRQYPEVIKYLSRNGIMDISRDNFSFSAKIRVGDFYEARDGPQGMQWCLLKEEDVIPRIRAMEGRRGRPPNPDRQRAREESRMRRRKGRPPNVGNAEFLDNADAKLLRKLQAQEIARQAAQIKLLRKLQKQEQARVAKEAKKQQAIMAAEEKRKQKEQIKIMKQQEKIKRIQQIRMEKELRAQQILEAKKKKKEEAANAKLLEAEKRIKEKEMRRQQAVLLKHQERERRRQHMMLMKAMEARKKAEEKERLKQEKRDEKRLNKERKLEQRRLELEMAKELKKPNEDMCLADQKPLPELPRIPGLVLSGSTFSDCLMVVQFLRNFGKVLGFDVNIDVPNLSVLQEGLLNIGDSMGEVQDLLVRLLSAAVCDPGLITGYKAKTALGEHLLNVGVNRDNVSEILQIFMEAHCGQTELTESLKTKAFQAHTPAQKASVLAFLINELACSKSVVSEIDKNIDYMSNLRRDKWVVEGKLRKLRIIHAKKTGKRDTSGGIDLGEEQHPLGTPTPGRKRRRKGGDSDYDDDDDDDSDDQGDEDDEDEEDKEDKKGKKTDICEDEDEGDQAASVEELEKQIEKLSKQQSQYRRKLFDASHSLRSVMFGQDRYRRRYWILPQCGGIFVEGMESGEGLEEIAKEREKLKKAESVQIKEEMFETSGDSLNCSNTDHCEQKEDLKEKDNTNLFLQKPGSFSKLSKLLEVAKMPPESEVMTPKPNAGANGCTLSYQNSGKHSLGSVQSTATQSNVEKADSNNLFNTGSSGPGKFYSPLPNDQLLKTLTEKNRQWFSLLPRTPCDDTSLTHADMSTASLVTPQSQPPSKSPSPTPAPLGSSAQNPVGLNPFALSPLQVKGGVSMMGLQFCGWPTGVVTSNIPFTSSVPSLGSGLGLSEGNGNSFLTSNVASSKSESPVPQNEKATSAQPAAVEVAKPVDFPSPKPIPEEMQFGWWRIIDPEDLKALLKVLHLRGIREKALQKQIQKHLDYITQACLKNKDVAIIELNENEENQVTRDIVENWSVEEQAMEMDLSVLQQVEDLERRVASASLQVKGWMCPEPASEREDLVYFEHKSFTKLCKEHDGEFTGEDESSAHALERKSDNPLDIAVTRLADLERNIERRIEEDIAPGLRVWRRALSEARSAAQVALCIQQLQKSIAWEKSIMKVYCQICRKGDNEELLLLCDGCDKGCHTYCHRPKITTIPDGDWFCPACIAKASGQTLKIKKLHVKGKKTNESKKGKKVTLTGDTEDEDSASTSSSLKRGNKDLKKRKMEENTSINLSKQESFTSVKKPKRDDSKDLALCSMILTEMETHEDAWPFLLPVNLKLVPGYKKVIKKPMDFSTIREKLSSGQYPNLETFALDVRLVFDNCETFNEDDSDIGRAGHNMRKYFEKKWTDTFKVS
Assay: qHTS Assay for Inhibitors of BAZ2B; note: nearly all actives have a fitted effect of over 60% in size; note: potency is the fitted concentration of half-maximal effect
Details: AlphaScreen BAZ2B-H3K14Ac peptide displacement; series mostly up to 114 µM
About 16,000 (4.4%) of roughly 360,000 compounds were called active. Not shown: some 9% with an inconclusive outcome. Shown is part of a subset that was picked to be rich in actives.

molecule | Potency
Cc1cc([N+](=O)[O-])ccc1NC1CCCC1 | inactive
CCOC(=O)c1c(NC(=O)CSc2nnc(CN3CCOCC3)n2C)sc2c1CCCC2 | inactive
CC1CC(=S)Nc2ccccc2N1Cc1ccccc1 (stereo unspecified) | 39.8 µM (active)
CC1CC(C)(C)NC(=S)N1CCC(=O)N1CCN(Cc2ccccc2)CC1 (stereo unspecified) | inactive
COc1ccc(Nc2ncc(F)c(N3CCOCC3)n2)cc1 | inactive
CC1CC(=O)Nc2ccccc2N1S(=O)(=O)c1cccs1 (stereo unspecified) | inactive
O=C1NN(c2ccccc2)C(=O)/C1=C/c1ccc(-c2cccc(C(=O)O)c2)o1 | 44.7 µM (active)
CCOC(=O)c1c(NC(=O)CSc2nnc(Cc3csc(N)n3)n2C)sc(C)c1C | 12.6 µM (active)
Cc1ccc(Nc2nc(N3CCOCC3)nc(N3CCOCC3)n2)cc1Cl | inactive
CC(=O)c1cc(-c2ccccc2)[nH]c1N1CCCC1 | inactive
CC1CCCN(c2nc3c(S(=O)(=O)c4ccc(C(C)C)cc4)nnn3c3ccsc23)C1 (stereo unspecified) | inactive
